# reported MIC; entries follow
# Tested on: E. coli MIG1655 LepB(P84L)
# experimentNotes: In vitro antimicrobial activity, MIC by broth micro-dilution
# Format: cell-based
# protocolConditions: Escherichia coli

{"compound": "CCCCCCCCCCCCCCCC(=O)N(C)[C@H](CO)C(=O)N[C@H](C)C(=O)NCC(=O)N(C)[C@@H]1C(=O)N[C@@H](C)C(=O)N[C@H](C(=O)N[C@@H](C)C(=O)N2CCCC2C(N)=O)Cc2ccc(O)c(c2)-c2cc1ccc2O (stereo partly drawn) [Compound 14]", "MIC [µg/mL]": 16}
{"compound": "CCCCCCCCCCCCCCCC(=O)N(C)[C@H](CO)C(=O)N[C@H](C)C(=O)NCC(=O)N(C)[C@@H]1C(=O)N[C@@H](C)C(=O)N[C@H](C(=O)NCC(=O)N2CCC[C@H]2C(=O)O)Cc2ccc(O)c(c2)-c2cc1ccc2O [Compound 31]", "MIC [µg/mL]": 16}
{"compound": "CCCCCCCCCCCCCCCC(=O)N(C)[C@H](CO)C(=O)N[C@H](C)C(=O)NCC(=O)N(C)[C@@H]1C(=O)N[C@@H](C)C(=O)N[C@H](C(=O)NCC(N)=O)Cc2ccc(O)c(c2)-c2cc1ccc2O [Compound 26]", "MIC [µg/mL]": 8}
{"compound": "CCCCCCCCCCCCCCCC(=O)N(C)[C@H](CO)C(=O)N[C@H](C)C(=O)NCC(=O)N(C)[C@@H]1C(=O)N[C@@H](C)C(=O)N[C@H](C(=O)NS(C)(=O)=O)Cc2ccc(O)c(c2)-c2cc1ccc2O [Compound 22]", "MIC [µg/mL]": 16}
{"compound": "CCCCCCCCCCCCCCCC(=O)N(C)[C@H](CO)C(=O)N[C@H](C)C(=O)NCC(=O)N(C)[C@@H]1C(=O)N[C@@H](C)C(=O)N[C@H](C(=O)N[C@@H](C)C(=O)C(=O)N(C)C)Cc2ccc(O)c(c2)-c2cc1ccc2O [Compound 28]", "MIC [µg/mL]": 8}
{"compound": "CCCCCCCCCCCCCCCC(=O)N(C)[C@H](CO)C(=O)N[C@H](C)C(=O)NCC(=O)N(C)[C@@H]1C(=O)N[C@@H](C)C(=O)N[C@H](C(=O)NC)Cc2ccc(O)c(c2)-c2cc1ccc2O [Compound 12]", "MIC [µg/mL]": 8}
{"compound": "CCCCCCCCCCCCCCCC(=O)N(C)[C@H](CO)C(=O)N[C@H](C)C(=O)NCC(=O)N(C)[C@@H]1C(=O)N[C@@H](C)C(=O)N[C@H](C(=O)NC(C)C=O)Cc2ccc(O)c(c2)-c2cc1ccc2O (stereo partly drawn) [Compound 33]", "MIC [µg/mL]": 64}
{"compound": "CCCCCCCCCCCCCCCC(=O)N(C)[C@H](CO)C(=O)N[C@H](C)C(=O)NCC(=O)N(C)[C@@H]1C(=O)N[C@@H](C)C(=O)N[C@H](C(=O)N[C@H](C)C(=O)C(=O)N(C)C)Cc2ccc(O)c(c2)-c2cc1ccc2O [Compound 29]", "MIC [µg/mL]": 16}
{"compound": "CCCCCCCCCCCCCCCC(=O)N(C)[C@H](CO)C(=O)N[C@H](C)C(=O)NCC(=O)N(C)[C@@H]1C(=O)N[C@@H](C)C(=O)N[C@H](C(=O)NCC(=O)N2CCCC2C(N)=O)Cc2ccc(O)c(c2)-c2cc1ccc2O (stereo partly drawn) [Compound 27]", "MIC [µg/mL]": 8}
